Experiment: 3T3 NRU phototoxicity test (irradiated)
Type: cell-based, mouse
Settings: mouse, BALB/3T3 clone A31 cells; BALB 3T3, irradiated 2.4 J/cm2, then 24 h; read-out: CC50 of Mean ± SD, Phototoxicity
Give measured CC50 at 24 h for each item. Keep answers brief.
Form entry: value (µg/mL) — number only.

// CC50 at 24 h value for CCOC(=O)c1sc2nc(Cc3ccc([N+](=O)[O-])cc3)nc(N)c2c1C [Compound 3] : 578

Lab note: measured CC50 at 24 h of CCOC(=O)c1sc2nc(Cc3ccccc3)nc(N)c2c1C [Compound 2] was 632

Input CCOC(=O)c1sc2nc(-c3cc(OC)c(OC)c(OC)c3)nc(N)c2c1C [Compound 4] . Output CC50 at 24 h: 11.8

Entry CCOC(=O)c1sc2nc(-c3ccccn3)nc(N)c2c1C [Compound 7] — recorded CC50 at 24 h = 2550

----------
Exercise: state measured CC50 at 24 h for each of the compounds provided.
Test: 3T3 Neutral Red Uptake (NRU) cytotoxicity test
Type: cell-based, mouse
Settings: mouse, BALB/3T3 clone A31 cells; BALB 3T3, 24 h, no irradiation; read-out: CC50 of Mean ± SD, Cytotoxicity
Quick reminder: number only, in µg/mL, skip the unit.

Entry `CCOC(=O)c1sc2nc(-c3ccccn3)nc(N)c2c1C` ; CC50 at 24 h = 2750

Reported CC50 at 24 h of `CCOC(=O)c1sc2nc(-c3cc(OC)c(OC)c(OC)c3)nc(N)c2c1C` : 8.37

So for `CCOC(=O)c1sc2nc(Cc3ccccc3)nc(N)c2c1C` , the logged CC50 at 24 h turned out to be 1210

// field: CC50 at 24 h; key: `CCOC(=O)c1sc2nc(Cc3ccc([N+](=O)[O-])cc3)nc(N)c2c1C` ; value = 1160

----------
Assay: 3T3 Neutral Red Uptake (NRU) cytotoxicity test
Assay type: cell-based, mouse
Settings: mouse, BALB/3T3 clone A31 cells; BALB 3T3, converted from µg/mL; read-out: IC50 cytotoxicity against BALB 3T3
ENDPOINT_NAME: IC50 at 24 h (mM)
Please give a number only; it is taken to be in mM.

GET /value?item= `CCOC(=O)c1sc2nc(-c3ccccn3)nc(N)c2c1C` &field=IC50 at 24 h returns 8.8

----------
ENDPOINT_NAME: melting point

Query `CCOC(=O)c1sc2nc(-c3ccncc3)nc(N)c2c1C.Cl` yields melting point of 259 to 261 °C

For record `CCOC(=O)c1sc2nc(-c3ccccn3)nc(N)c2c1C` the listed melting point is 262 to 264 °C

Record `CCOC(=O)c1sc2nc(-c3cccnc3)nc(N)c2c1C` . Reported melting point: 241 to 242 °C

What the record says about `CCOC(=O)c1sc2nc(Cc3ccccc3)nc(N)c2c1C` : melting point is 159 to 161 °C
